Target: T1, EBV gp350 expressed on the surface of stably transfected CHO cells (Epstein-Barr virus, UniProt P03200 1-907)
T1 construct: also called native gp350; gp350 expressing CHO cells
T1 sequence: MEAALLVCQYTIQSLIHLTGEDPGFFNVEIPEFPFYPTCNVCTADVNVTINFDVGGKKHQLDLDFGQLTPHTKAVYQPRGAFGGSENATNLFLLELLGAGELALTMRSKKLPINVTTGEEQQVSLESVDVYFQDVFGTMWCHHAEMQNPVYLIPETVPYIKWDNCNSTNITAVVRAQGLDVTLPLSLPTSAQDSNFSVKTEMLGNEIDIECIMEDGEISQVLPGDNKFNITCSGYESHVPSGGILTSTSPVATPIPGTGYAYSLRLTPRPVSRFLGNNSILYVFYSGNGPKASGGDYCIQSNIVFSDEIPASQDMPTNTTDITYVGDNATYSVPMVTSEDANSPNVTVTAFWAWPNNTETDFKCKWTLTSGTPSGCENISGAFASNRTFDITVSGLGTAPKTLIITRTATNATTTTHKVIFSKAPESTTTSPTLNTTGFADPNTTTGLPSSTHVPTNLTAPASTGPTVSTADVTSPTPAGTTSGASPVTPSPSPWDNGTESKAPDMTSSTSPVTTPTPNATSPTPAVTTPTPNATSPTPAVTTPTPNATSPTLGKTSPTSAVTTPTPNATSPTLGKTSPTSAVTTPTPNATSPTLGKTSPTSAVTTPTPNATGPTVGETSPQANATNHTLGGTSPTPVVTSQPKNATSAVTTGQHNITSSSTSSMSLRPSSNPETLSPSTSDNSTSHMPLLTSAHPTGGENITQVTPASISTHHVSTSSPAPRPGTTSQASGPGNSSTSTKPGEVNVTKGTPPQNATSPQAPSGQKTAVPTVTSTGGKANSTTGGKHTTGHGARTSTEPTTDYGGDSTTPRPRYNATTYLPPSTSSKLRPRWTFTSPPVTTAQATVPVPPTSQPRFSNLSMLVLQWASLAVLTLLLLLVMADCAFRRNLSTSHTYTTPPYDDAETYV
Test: cross-competition on gp350-CHO cells (flow), unlabeled 500 µg/ml; competitor: biotinylated m72A1
// values below are reported % inhibition of biotinylated nAbs
Write the answer as a number in %, unit excluded.

The cases that follow already have their % inhibition of biotinylated nAbs on record.
[[record]]
binder = "HB20 (antibody, V domains shown) VH: ELVKPGASVKLSCKASGYTFTSYWIQWVKQRPGQGLEWIGEINPTNGHTNYNEKFKTKATLTVDKSSSTAYMRLSSLTSEDSAVYYCARNLYYYGRPDYWGQGTSVTVSS VL: SSLSASLGDRVTISCRASQDIGNYLNWYQQKPDGTVKLLIYYTSRLHSGVPSRFSGSGSGTDYSLTISNLEQEDIATYFCQQGNALPPTFGGGTKLEIKR"
property_measured = "% inhibition of biotinylated nAbs"
unit_abbrev = "%"
obs_value = 98

[[record]]
binder = "murine 72A1 (m72A1), anti-EBV gp350 neutralizing antibody from hybridoma HB168 (antibody, V domains shown, also called nAb-72A1; mouse 72A1) VH: EVQLQQSGPELVKPGTSMKISCKASGSSFTDYTMNWMKQSHGKNLEWIGLINPYNGGTRYNQKFKGKATLTLDKSSSTAYMEVLSLTSEDSAVYYCAGGLRRVNWFAYWGQGTLVSVSA VL: QAVLTQESALTTSPGETVTLTCRSSTGAVTTSNYANWVQEKPDHLFTGLIGGTNNRVPGVPARFSGSLIGDKAALTITGAQTEDEAIYFCVLWHSNHWVFGGGTKLTVL"
property_measured = "% inhibition of biotinylated nAbs"
unit_abbrev = "%"
obs_value = 98


Now, please, on to the next binder.
Exercise: Given the entry HB5 (antibody, V domains shown, also called mHB5) VH: AELVRPGASVKISCKAFGYTFTNHNINWVKQRPGQGLDWIGYINPYNDYTSYNQKFKGKATLTVDKSSNTAYMELSSLTSEDSAVYYCARSEGWLRRGAWFAYWGQGTLVTVSA VL: AILSVSPGERVSFSCRASQSIGTSIHWYQQRTNDSPRLLIKYASESISGIPPRFSGSGSGTDFTLSINSVESEDIADYHCQQSNSWPMLTFGAGTKLELKR , report its measured % inhibition of biotinylated nAbs.
Solution: 97
